- ASSAY SUMMARY: Cytotoxicity against human Saos2 cells after 48 hrs by MTT assay
- Type: functional, cell-based
- CONDITION NOTES: SAOS-2, 48 h
Here the recorded IC50 is given for each entry.
PARAMETER: IC50 (µM)

# COMPOUND, PARAMETER, NUMBER
data = [
    ("CC(C)(C)n1nc(-c2ccc(Cl)cc2)c2c(N)ncnc21", "IC50", 8.07),
    ("CSc1nc(Nc2cccc(Cl)c2)c2cnn(CC(Cl)c3ccccc3)c2n1 (stereo not drawn)", "IC50", 11.6),
    ("CCCCNc1ncnc2c1cnn2CC(Cl)c1ccccc1 (stereo not drawn)", "IC50", 14.6),
]

---

- Tested on: Jurkat
- ASSAY SUMMARY: Growth inhibition of human Jurkat cells
- Format: functional
Entries and their GI50 values follow.

# SMILES REPRESENTATION, UNIT TAG, LIMIT OPERATOR, GI50
rows = [
    ("Clc1ccc(-c2nn(-c3ccc4ccccc4n3)c3ncncc23)cc1", "µM", "=", 69),
    ("Cc1ccc(-c2nn(-c3ccc4ccccc4n3)c3ncncc23)cc1", "µM", "=", 54),
    ("COc1ccc(-c2nn(-c3ccc4ccccc4n3)c3ncncc23)cc1", "µM", ">", 100),
    ("Clc1ccc(-c2nn(-c3ccccc3)c3ncncc23)cc1", "µM", "=", 36),
]

---

- Tested on: Enterococcus raffinosus
- ASSAY SUMMARY: Antibacterial activity against Enterococcus raffinosus
- Type: functional
Catalogue of MIC values
PARAMETER: MIC

# SMILES REPRESENTATION, PARAMETER, RESULT
rows = [
    ("Nc1n[nH]c2nc(-c3ccccc3)nc(-c3ccc(Cl)cc3)c12", "MIC", "> 300 µM"),
    ("Nc1ccc(-c2nc(-c3ccccc3)nc3[nH]nc(N)c23)cc1", "MIC", "82.8 µM"),
    ("COc1ccc(-c2nc(-c3ccccc3)nc3[nH]nc(N)c23)cc1", "MIC", "14.2 µM"),
    ("Nc1n[nH]c2nc(-c3ccccc3)nc(-c3ccc(Br)cc3)c12", "MIC", "12.3 µM"),
]
